Answer each item with its documented Ki.
- TESTED TARGET: 5-HT2A (Homo sapiens (Human))
- Sequence (P28223 whole entry): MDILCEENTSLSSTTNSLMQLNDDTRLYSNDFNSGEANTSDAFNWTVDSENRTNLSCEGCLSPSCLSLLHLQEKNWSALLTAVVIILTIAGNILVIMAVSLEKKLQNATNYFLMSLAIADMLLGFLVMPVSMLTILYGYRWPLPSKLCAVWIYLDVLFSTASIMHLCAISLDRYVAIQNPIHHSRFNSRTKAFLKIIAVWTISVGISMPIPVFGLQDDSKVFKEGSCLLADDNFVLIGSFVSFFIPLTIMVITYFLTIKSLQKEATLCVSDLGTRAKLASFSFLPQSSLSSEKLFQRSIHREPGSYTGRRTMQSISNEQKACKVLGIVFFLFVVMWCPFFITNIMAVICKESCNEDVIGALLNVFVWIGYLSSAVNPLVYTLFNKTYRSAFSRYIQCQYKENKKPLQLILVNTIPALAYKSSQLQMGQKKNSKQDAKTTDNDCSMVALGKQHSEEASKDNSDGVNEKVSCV
- PROTOCOL TEXT: Radioligand binding assay, [^3H]5-HT competition, 5-HT2A
- ASSAY SETUP: [^3H]5-HT radioligand, membranes of HEK293 cells expressing recombinant 5-HT2A; Ki from IC50 by Cheng-Prusoff; read-out: 5-HT2A serotonin binding Ki value
Don't forget the unit after the number, please.

5-HT2A (Homo sapiens (Human)) assay, compound Cc1ncnc(C)c1-c1cc(NC(=O)C2C3COCC32)ccc1OCCN1CCCC1 (stereo not shown) [Compound 232] , recorded Ki = 24.5 nM

5-HT2A (Homo sapiens (Human)) assay, compound Cc1ncnc(C)c1-c1cc(NC(=O)Cc2ccn(C)n2)ccc1OCCN1CCCC1 [Compound 269] , recorded Ki = 559 nM

5-HT2A (Homo sapiens (Human)) assay, compound Cc1cccc(C(=O)Nc2ccc(OCCN3CCC3)c(-c3c(C)ncnc3C)c2)c1 [Compound 322] , recorded Ki = 3.39 nM

5-HT2A (Homo sapiens (Human)) assay, compound Cc1ncnc(C)c1-c1cc(NC(=O)c2ncsc2C)ccc1OC[C@H]1CCCCN1 [Compound 435] , recorded Ki = 10.7 nM

5-HT2A (Homo sapiens (Human)) assay, compound Cc1ncnc(C)c1-c1cc(NC(=O)[C@@H]2C[C@@H]2F)ccc1OC[C@H]1CCCCN1 [Compound 424] , recorded Ki = 12.5 nM

5-HT2A (Homo sapiens (Human)) assay, compound Cc1nocc1C(=O)Nc1ccc(OCCN2CCCC2)c(-c2c(C)ncnc2C)c1 [Compound 219] , recorded Ki = 6.51 nM

5-HT2A (Homo sapiens (Human)) assay, compound COCCN(C)CCOc1ccc(NC(=O)c2cccc(F)c2)cc1-c1c(C)ncnc1C [Compound 378] , recorded Ki = 12.5 nM

Value source: patent US20250270172A1
